# Test system: Neuropilin-2 / VEGF-C interaction (human)
# Method: small molecules blocking Neuropilin-2/VEGF-C interaction – biochemical, microplate binding format, z-score (AID 743281); also: test concentration not given here
# Setup conditions: microplate NRP2/VEGF-C binding assay; active compounds read low
Active and inactive are the calls of the source. No rule for the calls is given here.
Property label: z-score

Worked cases, z-score given:
Nc1ccc(O)c(C(=O)O)c1    -0.236 (inactive)
Nc1ccn([C@H]2CC[C@@H](CO)O2)c(=O)n1    0.496 (inactive)
C[C@H](NC(CCc1ccccc1)C(=O)O)C(=O)N1CCC[C@H]1C(=O)O (stereo partly specified)    0.126 (inactive)
COCc1c(C(C)C)nc(C(C)C)c(/C=C/[C@@H](O)C[C@@H](O)CC(=O)O)c1-c1ccc(F)cc1    -0.18 (inactive)

Reported z-score for CC(C)c1ccc2oc3nc(N)c(C(=O)O)cc3c(=O)c2c1 : what is it?
0.737 (inactive)

Reported z-score for COc1ccc(CN2CCN(C(c3ccc(F)cc3)c3ccc(F)cc3)CC2)c(OC)c1OC : what is it?
0.136 (inactive)

Reported z-score for CN(Cc1cnc2nc(N)nc(N)c2n1)c1ccc(C(=O)N[C@@H](CCC(=O)O)C(=O)O)cc1 : what is it?
-1.5 (inactive)

Reported z-score for CN(CCOc1ccc(NS(C)(=O)=O)cc1)CCc1ccc(NS(C)(=O)=O)cc1 : what is it?
-1.11 (inactive)

Reported z-score for Cc1ncc([N+](=O)[O-])n1CCO : what is it?
-0.317 (inactive)

Reported z-score for CC(=O)Oc1ccccc1C(=O)Nc1ncc([N+](=O)[O-])s1 : what is it?
-0.0903 (inactive)

Reported z-score for COc1cc(C(=O)NC2CCCNC2)cc(OC)c1OC (stereo unspecified) : what is it?
-0.315 (inactive)
